// IC50 collected for Human HDAC1 (Homo sapiens (Human))
Numeric only. Scale: µM

Recorded results for 4 compounds are shown here.
Task: Form field - read-out: IC50; system: Human HDAC1 (Homo sapiens (Human)); submitted item: O=C(NO)c1ccc(Cn2c(=O)n(CCc3ccccc3)c(=O)c3cc(Cl)ccc32)cc1
Sequence (Q13547 whole entry): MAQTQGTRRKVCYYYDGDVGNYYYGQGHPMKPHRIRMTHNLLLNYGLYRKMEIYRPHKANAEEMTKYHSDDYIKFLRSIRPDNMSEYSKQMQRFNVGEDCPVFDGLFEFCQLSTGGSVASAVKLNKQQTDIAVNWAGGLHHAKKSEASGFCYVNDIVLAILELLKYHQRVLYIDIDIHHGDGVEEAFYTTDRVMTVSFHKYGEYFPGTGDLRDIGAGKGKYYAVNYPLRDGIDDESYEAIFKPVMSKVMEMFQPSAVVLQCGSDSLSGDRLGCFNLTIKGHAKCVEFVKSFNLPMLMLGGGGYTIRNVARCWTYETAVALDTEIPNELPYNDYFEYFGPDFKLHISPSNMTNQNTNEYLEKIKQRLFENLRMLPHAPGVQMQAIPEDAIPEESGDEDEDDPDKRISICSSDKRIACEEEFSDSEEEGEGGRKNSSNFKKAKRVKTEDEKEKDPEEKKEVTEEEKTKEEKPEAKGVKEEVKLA
Result: 18.9

Task: Form field - read-out: IC50; system: Human HDAC1 (Homo sapiens (Human)); submitted item: O=C(NO)c1ccc(Cn2c(=O)n(CCc3ccccc3)c(=O)c3ccc(Cl)cc32)cc1
Result: 9.54

Task: Form field - read-out: IC50; system: Human HDAC1 (Homo sapiens (Human)); submitted item: O=C(NO)c1ccc(Cn2c(=O)n(CCc3ccccc3)c(=O)c3ccccc32)cc1
Result: 11.2

Task: Form field - read-out: IC50; system: Human HDAC1 (Homo sapiens (Human)); submitted item: N#Cc1ccc2c(=O)n(CCc3ccccc3)c(=O)n(Cc3ccc(C(=O)NO)cc3)c2c1
Result: 12

Continuing:
Task: Form field - read-out: IC50; system: Human HDAC1 (Homo sapiens (Human)); submitted item: O=C(NO)c1ccc(Cn2c(=O)n(CCc3ccccc3)c(=O)c3ccsc32)cc1
Result: 6.66

Task: Form field - read-out: IC50; system: Human HDAC1 (Homo sapiens (Human)); submitted item: O=C(NO)c1ccc(Cn2c(=O)n(CCc3ccc(F)cc3)c(=O)c3ccccc32)cc1
Result: 10.8

Task: Form field - read-out: IC50; system: Human HDAC1 (Homo sapiens (Human)); submitted item: O=C(NO)c1ccc(Cn2c(=O)n(CCc3cccc(F)c3)c(=O)c3ccccc32)cc1
Result: 13.2

Task: Form field - read-out: IC50; system: Human HDAC1 (Homo sapiens (Human)); submitted item: Cc1ccc2c(=O)n(CCc3ccccc3)c(=O)n(Cc3ccc(C(=O)NO)cc3)c2c1
Result: 10.9

Task: Form field - read-out: IC50; system: Human HDAC1 (Homo sapiens (Human)); submitted item: O=C(NO)c1ccc(Cn2c(=O)n(CCc3ccc(N4CCOCC4)cc3)c(=O)c3ccccc32)cc1
Result: 9.79

---

test system: FHsWe; test: Cell proliferation assay MTT, FHsWe normal cells; conditions: read-out: Cytotoxicity IC50 Human normal FHsWe, 72 hr treated
QUANTITY NAME: IC50 (µM)
Numeric only. Scale: µM

Task: Fill in the blank: the reported IC50 of CN1CCc2c(c3ccccc3n2Cc2ccc(C(=O)NO)cc2)C1 [Tubastatin A, reference compound] is ____.
Result: 46.5

---

system: MV4-11; experiment: Cell proliferation assay MTT, MV4-11; settings: human, MV4-11 leukemia cells, 72 h
QUANTITY NAME: pIC50
Worth noting: pIC50 values are minus log10 of concentrations stated in mol/L.

Task: Fill in the blank: the reported pIC50 of O=C(NO)c1ccc(Cn2c(=O)n(CCc3cccc(F)c3)c(=O)c3ccccc32)cc1 [Compound 26] is ____.
Result: 5.43

Task: Fill in the blank: the reported pIC50 of N#Cc1ccc2c(=O)n(CCc3ccccc3)c(=O)n(Cc3ccc(CC(=O)NO)cc3)c2c1 [Compound 23] is ____.
Result: 5.92

Task: Fill in the blank: the reported pIC50 of O=C(NO)c1ccc(Cn2c(=O)n(CCc3ccc(F)cc3)c(=O)c3ccccc32)cc1 [Compound 14] is ____.
Result: 5.75

Task: Fill in the blank: the reported pIC50 of O=C(NO)c1ccc(Cn2c(=O)n(CCc3ccccc3)c(=O)c3ccc(Cl)cc32)cc1 [Compound 8] is ____.
Result: 6.43

Task: Fill in the blank: the reported pIC50 of O=C(NO)c1ccc(Cn2c(=O)n(CCc3ccccc3)c(=O)c3ccc(O)cc32)cc1 [Compound 4] is ____.
Result: 6.12

Next:
Task: Fill in the blank: the reported pIC50 of Cc1ccc2c(=O)n(CCc3ccccc3)c(=O)n(Cc3ccc(C(=O)NO)cc3)c2c1 [Compound 22] is ____.
Result: 5.79

---

tested on: HepG2; details: human, 72 h
Reported pIC50 values follow for various compounds
Worth noting: pIC50 values are minus log10 of concentrations stated in mol/L.

Recorded results for 8 compounds are shown here.
Task: Fill in the blank: the reported pIC50 of O=C(NO)c1cc(Cn2c(=O)n(CCc3ccccc3)c(=O)c3ccccc32)cs1 is ____.
Result: 5.27

Task: Fill in the blank: the reported pIC50 of O=C(NO)c1ccc(Cn2c(=O)n(CCc3ccccc3)c(=O)c3ccsc32)cc1 is ____.
Result: 5.45

Task: Fill in the blank: the reported pIC50 of O=C(NO)c1ccc(Cn2c(=O)n(CCc3ccc(F)cc3)c(=O)c3ccccc32)cc1 is ____.
Result: 5.17

Task: Fill in the blank: the reported pIC50 of O=C(NO)c1ccc(Cn2c(=O)n(CCc3cccc(F)c3)c(=O)c3ccccc32)cc1 is ____.
Result: 5.39

Task: Fill in the blank: the reported pIC50 of O=C(NO)c1ccc(Cn2c(=O)n(CCc3ccccc3)c(=O)c3ccc(Cl)cc32)cc1 is ____.
Result: 5.56

Task: Fill in the blank: the reported pIC50 of O=C(Cc1ccc(Cn2c(=O)n(CCc3ccccc3)c(=O)c3ccccc32)cc1)NO is ____.
Result: 5.16

Task: Fill in the blank: the reported pIC50 of O=C(NO)c1ccc(Cn2c(=O)n(CCc3ccccc3)c(=O)c3ccc(O)cc32)cc1 is ____.
Result: 5.21

Task: Fill in the blank: the reported pIC50 of O=C(NO)c1ccc(Cn2c(=O)n(CCc3cccs3)c(=O)c3ccccc32)cc1 is ____.
Result: 5.39

Next:
Task: Fill in the blank: the reported pIC50 of O=C(NO)c1ccc(Cn2c(=O)n(CCc3ccccc3)c(=O)c3cc(F)ccc32)cc1 is ____.
Result: 5.18

---

molecular target: Human HDAC8 (Homo sapiens (Human), UniProt Q9BY41)
Sequence (Q9BY41 whole entry): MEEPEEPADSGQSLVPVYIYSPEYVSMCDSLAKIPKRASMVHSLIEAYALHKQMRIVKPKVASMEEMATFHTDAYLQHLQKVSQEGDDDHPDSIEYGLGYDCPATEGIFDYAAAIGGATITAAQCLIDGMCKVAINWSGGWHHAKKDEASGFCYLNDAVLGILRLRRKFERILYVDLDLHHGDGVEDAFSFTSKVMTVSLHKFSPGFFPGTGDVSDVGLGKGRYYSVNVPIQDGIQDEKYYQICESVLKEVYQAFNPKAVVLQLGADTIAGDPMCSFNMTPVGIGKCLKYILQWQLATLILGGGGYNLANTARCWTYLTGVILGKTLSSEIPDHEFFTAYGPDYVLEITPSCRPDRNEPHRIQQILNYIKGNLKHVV
pIC50: −log10 of the molar value.
Assign class by pIC50: not lower than 6 means true (1); lower than 6 means false (0).

Reference set, count: 2
Task: Tell me whether pIC50 is at least 6 here: O=C(NO)c1ccc(Cn2c(=O)n(CCc3ccccc3)c(=O)c3ccccc32)cc1
Result: true (1)

Task: Tell me whether pIC50 is at least 6 here: Cc1ccc2c(=O)n(CCc3ccccc3)c(=O)n(Cc3ccc(C(=O)NO)cc3)c2c1
Result: false (0)

Okay, next one:
Task: Tell me whether pIC50 is at least 6 here: COc1ccccc1CCn1c(=O)c2ccccc2n(Cc2ccc(C(=O)NO)cc2)c1=O
Result: true (1)

---

test: in vitro; conditions: monkey
Reported IC50 at 72 h values follow for various molecules
Numeric only. Scale: µM

Recorded results for 3 molecules are shown here.
Task: Fill in the blank: the reported IC50 at 72 h of O=C(NO)c1ccc(Cn2c(=O)n(CCc3ccccc3)c(=O)c3cc(F)ccc32)cc1 is ____.
Result: 123

Task: Fill in the blank: the reported IC50 at 72 h of O=C(NO)c1ccc(Cn2c(=O)n(Cc3ccccc3)c(=O)c3ccccc32)cc1 is ____.
Result: 97.2

Task: Fill in the blank: the reported IC50 at 72 h of O=C(Cc1ccc(Cn2c(=O)n(CCc3ccccc3)c(=O)c3ccccc32)cc1)NO is ____.
Result: 160

Next:
Task: Fill in the blank: the reported IC50 at 72 h of O=C(NO)c1ccc(Cn2c(=O)n(CCc3ccccc3)c(=O)c3cccnc32)cc1 is ____.
Result: 166

---

test system: MV4-11; assay: Cell proliferation assay MTT, MV4-11; details: read-out: Cytotoxicity IC50 Leukemia MV4-11; MTT assay, 72 hr treated
Reported pIC50 values follow for various compounds
Worth noting: pIC50 values are minus log10 of concentrations stated in mol/L.

Recorded results for 3 compounds are shown here.
Task: Form field - read-out: pIC50; system: MV4-11; submitted item: O=C(NO)c1ccc(Cn2c(=O)n(CCc3ccccc3)c(=O)c3ccc(C(F)(F)F)cc32)cc1 [Compound 13]
Result: 6.08

Task: Form field - read-out: pIC50; system: MV4-11; submitted item: O=C(NO)c1ccc(Cn2c(=O)n(CCc3ccccc3)c(=O)c3ccccc32)cc1 [Compound 5]
Result: 6.77

Task: Form field - read-out: pIC50; system: MV4-11; submitted item: O=C(NO)c1ccc(Cn2c(=O)n(CCc3ccccc3)c(=O)c3cc(Cl)ccc32)cc1 [Compound 9]
Result: 5.56

Next:
Task: Form field - read-out: pIC50; system: MV4-11; submitted item: COc1ccccc1CCn1c(=O)c2ccccc2n(Cc2ccc(C(=O)NO)cc2)c1=O [Compound 15]
Result: 5.78

---

system: PANC1; conditions: human, 72 h
QUANTITY NAME: IC50 (µM)
Numeric only. Scale: µM

Task: Fill in the blank: the reported IC50 of Cn1c(=O)c2ccc(Cl)cc2n(Cc2ccc(C(=O)NO)cc2)c1=O is ____.
Result: 9.04

Task: Fill in the blank: the reported IC50 of O=C(NO)c1ccc(Cn2c(=O)n(CCc3ccccc3)c(=O)c3ccc(O)cc32)cc1 is ____.
Result: 6.54

Task: Fill in the blank: the reported IC50 of O=C(NO)c1ccc(Cn2c(=O)n(CCc3cccc(F)c3)c(=O)c3ccccc32)cc1 is ____.
Result: 5.03

Task: Fill in the blank: the reported IC50 of O=C(NO)c1ccc(Cn2c(=O)n(CCc3ccccc3)c(=O)c3ccc(Cl)cc32)cc1 is ____.
Result: 3.52

Task: Fill in the blank: the reported IC50 of O=C(Cc1ccc(Cn2c(=O)n(CCc3ccccc3)c(=O)c3ccccc32)cc1)NO is ____.
Result: 8.73

Task: Fill in the blank: the reported IC50 of Cc1ccc2c(=O)n(CCc3ccccc3)c(=O)n(Cc3ccc(C(=O)NO)cc3)c2c1 is ____.
Result: 8.73

Task: Fill in the blank: the reported IC50 of O=C(Cc1ccc(Cn2c(=O)n(CCc3ccccc3)c(=O)c3ccccc32)c(F)c1)NO is ____.
Result: 4.29

Task: Fill in the blank: the reported IC50 of O=C(NO)c1ccc(Cn2c(=O)n(CCc3ccccc3)c(=O)c3ccsc32)cc1 is ____.
Result: 4.72

Next:
Task: Fill in the blank: the reported IC50 of O=C(NO)c1ccc(Cn2c(=O)n(CCc3ccccc3)c(=O)c3cc(F)ccc32)cc1 is ____.
Result: 8.47
